# Assay method text: folding enthalpy; higher = less favourable; fluorescence melt of hairpins on a sequencing array, two-state fit
# Condition summary: sodium 0.088 M
yes means recorded folding enthalpy is -100 kJ/mol or above; no means it is below -100 kJ/mol.

{"columns": ["Sequence data", "Assigned label"],
 "data": [
  ["GATCCCCCTCGGGATC ((((((....))))))", "no"],
  ["GGTGTGGGAAACCATGCC ((..(((....)))..))", "no"],
  ["GCCCAGCGAAAGCGGCGC ((.(.((....)).).))", "yes"],
  ["GGGAACGAAAGTTCGCCC ((((((....)))..)))", "yes"],
  ["GGCGCAGGAAACCGCGCC (((((.(....).)))))", "no"],
  ["GCGACGTTCGC ((((...))))", "yes"],
  ["GAGAGACGAAAGTCGCTC (((.(((....))).)))", "no"],
  ["GCCCGGGGAAACCCGGAC (.(((((....))))).)", "yes"],
  ["GGGGAGGGAAACCTTCCC (((.(((....))).)))", "no"],
  ["CGTGCGGAAACGCGTACG ((((((....)))..)))", "no"],
  ["GACTTTGGAAACAAGGTC (((.(((....))).)))", "no"],
  ["GATGCTGCGAAAGCAATC (((..(((....))))))", "yes"],
  ["GTATCTCGAAAGAGGTAC (((.(((....))).)))", "no"],
  ["GGACGCGAAAGCGCCTCC ((((((....)))..)))", "yes"]
]}

====

# Assay method text: folding enthalpy; higher = less favourable; fluorescence melt of hairpins on a sequencing array, two-state fit
# Condition summary: sodium 0.088 M
Reported folding enthalpy is given for each of the following sequences.
Value kind: folding enthalpy (kcal/mol)

{"columns": ["Sequence data", "Reported result"],
 "data": [
  ["GTACACCGAAAGGTTTAC (((.(((....))).)))", -30.6],
  ["GCTAACGAAAGTTGTAGC ((((((....)))..)))", -20.6],
  ["GTCCTCGAAAGAGTTGAC ((((((....)))..)))", -10.7],
  ["GGTGTAACGAAAGTTACC (((..(((....))))))", -14.3],
  ["GTGTTCGGAAACGAGTAC ((..(((....)))..))", -18.9]
]}

====

# Assay method text: folding enthalpy; higher = less favourable; fluorescence melt of hairpins on a sequencing array, two-state fit
# Condition summary: sodium 0.088 M
Just so you know, the groups by folding enthalpy go like this: category 1: < -30 kcal/mol; category 2: ≥ -30 kcal/mol and < -20 kcal/mol; category 3: ≥ -20 kcal/mol

{"columns": ["Sequence data", "Assigned label"],
 "data": [
  ["GCAGATCGAAAGATTTGC (((.(((....))).)))", "category 1"],
  ["GATCGACCATCGATC ((((((...))))))", "category 1"],
  ["GGCGGCGGAAACGCCACC ((.((((....)))).))", "category 2"],
  ["GCTCAGGGAAACTTGAGC (((((.(....).)))))", "category 1"],
  ["GGGGCGGGAAACCGTCCC (((.(((....))).)))", "category 1"],
  ["GATTCCGAAAGGATATC ((((((....))).)))", "category 2"],
  ["GTACGGGGAAACCCATAC (((.(((....))).)))", "category 2"],
  ["GATCATCGAAATGATC ((((((....))))))", "category 2"],
  ["GTTCCCCGAAAGGGCAAC (((.(((....))).)))", "category 3"],
  ["ACCCAGAAATGGGT (((((....)))))", "category 3"],
  ["GCGTGGGGAAACCTGCGC (((..((....))..)))", "category 1"],
  ["GCTGAGCGAAAGCTCTGC ((.((((....)))).))", "category 1"],
  ["GCAACGCGAAAGCTTCGC ((.(.((....)).).))", "category 3"],
  ["GCAACCCCGAAAGGGTGC (((..(((....))))))", "category 3"],
  ["GATGTGCCGAAAGGCATC (((..(((....))))))", "category 3"],
  ["GCCCGGCGAAAGCCGGC (((.(((....))))))", "category 3"],
  ["GATCGATATTTCGATC ((((((....))))))", "category 1"],
  ["GGCAATCGAAAGATGCC (((.(((....))))))", "category 1"]
]}

====

# Assay method text: melting temperature; fluorescence melt of hairpins on a sequencing array, two-state fit, raised by 9.35 °C to match UV melts
# Condition summary: sodium 0.088 M

{"columns": ["Sequence data", "Tm"],
 "data": [
  ["TACTCGAAAGAGTA (((((....)))))", "47.1 °C"],
  ["GCGGCGCGAAAGCGTAGC ((..(((....)))..))", "65.8 °C"],
  ["GCCCTGACGAAAGTCGGC (((..(((....))))))", "48.9 °C"]
]}

====

Reported Tm is given for each of the following sequences.
# Assay method text: melting temperature; fluorescence melt of hairpins on a sequencing array, two-state fit, raised by 9.35 °C to match UV melts
# Condition summary: sodium 0.088 M

{"columns": ["Sequence data", "Tm (°C)"],
 "data": [
  ["GCGGTGGGAAACCACTGC ((.((((....)))).))", 60.4],
  ["GATCCCCTGCGGGATC ((((((....))))))", 58.2],
  ["GCACCCGAAAGGGGCTGC ((((((....)))..)))", 65.3],
  ["GACTGCGAAAGCAGGTC ((((((....))).)))", 58.1],
  ["GCCGGGCGAAAGCGCCGC ((.(.((....)).).))", 48.7],
  ["GAACGCGAAAGCGTCTTC ((((((....)))..)))", 62.6],
  ["GGGTACCCGAAAGGGCCC (((..(((....))))))", 47.8],
  ["GCCCGGCGAAAGCCCGGC (((.(((....))).)))", 60.5],
  ["GATCTATGTATAGATC ((((((....))))))", 48.2]
]}

====

# Assay method text: melting temperature; fluorescence melt of hairpins on a sequencing array, two-state fit, raised by 9.35 °C to match UV melts
# Condition summary: sodium 0.088 M
Reported Tm is given for each of the following sequences.
Value kind: Tm (°C)

{"columns": ["Sequence data", "Value kind", "Units text", "Reported result"],
 "data": [
  ["GATCGTAAAGACGATC ((((((....))))))", "Tm", "°C", 51.1],
  ["GGTATGCGAAAGCACACC (((.(((....))).)))", "Tm", "°C", 49.7],
  ["GGGTAACCGAAAGGTCCC (((..(((....))))))", "Tm", "°C", 45.8],
  ["GTCGTCCGAAAGGAAGAC (((.(((....))).)))", "Tm", "°C", 55.9],
  ["GGCAACGAAAGTTCTGCC ((((((....)))..)))", "Tm", "°C", 40.4],
  ["CGTACGGAAACGTAAACG ((((((....)))..)))", "Tm", "°C", 37.2],
  ["GTTGCCGAAAGGCGAAC ((((((....))).)))", "Tm", "°C", 50.3],
  ["GCGTACCACGC ((((...))))", "Tm", "°C", 55.9],
  ["GATCGTCTACACGATC ((((((....))))))", "Tm", "°C", 53.9],
  ["GATCAAGCGTTTGATC ((((((....))))))", "Tm", "°C", 43.9],
  ["GTGCACTCGAAAGAGCAC (((..(((....))))))", "Tm", "°C", 45.2],
  ["GTCGGCCGAAAGGCGAC (((.(((....))))))", "Tm", "°C", 67.2]
]}

====

# Assay method text: folding enthalpy; higher = less favourable; fluorescence melt of hairpins on a sequencing array, two-state fit
# Condition summary: sodium 0.088 M

{"columns": ["Sequence data", "folding enthalpy / kcal/mol"],
 "data": [
  ["GATCGTGTGACGATC ((((((...))))))", -40.1],
  ["GATCAAAAATTGATC ((((((...))))))", -29.7],
  ["GCGTGCGTACGC ((((....))))", -13.7],
  ["GGCCTCCGAAAGGAAGCC (((.(((....))).)))", -40.9]
]}
